Value source: patent US20260092061A1

targetOrSystem: BRD9 (Homo sapiens)
Sequence (Q9H8M2 whole entry): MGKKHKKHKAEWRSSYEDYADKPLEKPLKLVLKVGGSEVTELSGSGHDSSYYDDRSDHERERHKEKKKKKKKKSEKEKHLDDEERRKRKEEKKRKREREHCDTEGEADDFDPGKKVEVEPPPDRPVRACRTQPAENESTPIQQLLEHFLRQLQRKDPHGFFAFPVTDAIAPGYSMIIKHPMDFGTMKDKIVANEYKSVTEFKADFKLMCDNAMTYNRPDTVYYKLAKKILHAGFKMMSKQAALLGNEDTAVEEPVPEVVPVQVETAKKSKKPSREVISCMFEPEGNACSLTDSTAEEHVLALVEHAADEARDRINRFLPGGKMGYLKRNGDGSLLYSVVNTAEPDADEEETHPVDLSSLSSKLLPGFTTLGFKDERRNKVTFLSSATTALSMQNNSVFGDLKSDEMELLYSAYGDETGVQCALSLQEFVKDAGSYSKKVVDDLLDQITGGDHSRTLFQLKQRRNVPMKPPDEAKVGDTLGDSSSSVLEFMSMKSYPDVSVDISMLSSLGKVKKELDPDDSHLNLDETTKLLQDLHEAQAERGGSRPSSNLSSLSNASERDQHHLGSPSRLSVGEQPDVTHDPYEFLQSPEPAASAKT
protocolDescription: Degradation of BRD9 (IF), immunofluorescence in MV4-11 cells, 24 hours (Assay Protocol 2)
Assay type: cell-based
Design: A suspension of MV4-11 cells (ATCC CRL-9591) was prepared; host or cells: MV4-11
testContext: Assay protocol 2; BRD9 degradation; read-out: DC50
Description: Assay Protocol 2—Degradation of BRD9 (IF) A suspension of MV4-11 cells (ATCC CRL-9591) was prepared in phenol red-free assay media (IMDM Thermo Scientific 21056023+10% FBS ATCC 302025) and cells were seeded at 20,000 cells per well (45 μL) in sterile black poly-d-lysine coated 384 well plates (Greiner 781948). Compounds were prepared at 1000× final concentration in DMSO, diluted 1:100 in assay media, and 5 μL compound was added to each well of the cell plate. […]
Let's look at some compounds and their measured DC50.

// known answers, use as guide
COc1cc(-c2cn(C)c(=O)c3[nH]ncc23)cc(OC)c1CN1CCN(Cc2ccc3c(c2)[C@@H](C)N(C(=O)/C(C#N)=C/C(C)(C)C)CC3)C2(CC2)C1 (single isomer, unassigned)    < 1.25 nM
COc1cc(-c2cn(C)c(=O)c(C)c2C)cc(OC)c1CN1CCN(Cc2cccc3c2CCN(C(=O)/C(C#N)=C/C(C)(C)C)[C@@H]3C(C)C)CC12CC2 (single isomer, unassigned)    25 to 1000 nM
COc1cc(-c2cn(C)c(=O)c(C)c2C)cc(OC)c1CN1CCN(Cc2cccc3c2CCN(C(=O)/C(C#N)=C/C(C)(C)C)[C@H]3C2CC2)C2(CC2)C1 (single isomer, unassigned)    < 1.25 nM
COc1cc(-c2cn(C)c(=O)c(C)c2C)cc(OC)c1CN1CCN(Cc2cccc3c2CCN(C(=O)/C(C#N)=C/c2cccc(F)c2F)C3C)CC1 (mixture of isomers)    1.25 to 10 nM
COc1cc(-c2cn(C)c(=O)c(C)c2C)cc(OC)c1CN1CCN(Cc2cccc3c2CCN(C(=O)/C(C#N)=C/C(C)(C)C)C3(C)C)C2(CC2)C1    25 to 1000 nM
COc1cc(-c2cn(C)c(=O)c(C)c2C)cc(OC)c1CN1CCC2(CC1)CCN(c1cccc3c1CCN(C(=O)/C(C#N)=C/C(C)(C)C)C3C)C2 (stereo not shown)    1.25 to 10 nM

Short answer for COc1cc(-c2cn(C)c(=O)c(C)c2C)cc(OC)c1CN1CCC(COc2cccc3c2CCN(C(=O)/C(C#N)=C/c2cccc(Br)n2)C3C)CC1 (mixture of isomers) : DC50 was < 1.25 nM

Short answer for COc1cc(-c2cn(C)c(=O)c(C)c2C)cc(OC)c1CN1CCC2(CCN(c3cccc4c3CCN(C(=O)/C(C#N)=C/C(C)(C)C)C4C)C2)C1 (stereo not shown) : DC50 was 1.25 to 10 nM

Short answer for COc1cc(-c2cn(C)c(=O)c(C)c2C)cc(OC)c1CN1CCC(Oc2ccc3c(c2)[C@H](C)N(C(=O)/C(C#N)=C/C(C)(C)C)CC3)CC1 (single isomer, unassigned) : DC50 was 1.25 to 10 nM

Short answer for COc1cc(-c2cn(C)c(=O)c(C)c2C)cc(OC)c1CN1CCN(Cc2cccc3c2CCN(C(=O)/C(C#N)=C/C(C)(C)C(F)(F)F)C3C)C2(CC2)C1 (mixture of isomers) : DC50 was 1.25 to 10 nM

Short answer for COc1cc(-c2cn(C)c(=O)c(C)c2C)cc(OC)c1CN1CCCN(Cc2cccc3c2CCN(C(=O)/C(C#N)=C/c2cccc(Br)n2)C3C)CC1 (mixture of isomers) : DC50 was 1.25 to 10 nM

Short answer for COc1cc(-c2cn(C)c(=O)c(C)c2C)cc(OC)c1CN1CC(=O)N(Cc2cccc3c2CCN(C(=O)/C(C#N)=C/C(C)(C)C)C3C)C(C)(C)C1 (stereo not shown) : DC50 was 25 to 1000 nM

Short answer for COc1cc(-c2cn(C)c(=O)c(C)c2C)cc(OC)c1CN1CCN(Cc2ccc3c(c2)[C@@H](C)N(C(=O)/C(C#N)=C/C(C)(C)CN2CCOCC2)CC3)C2(CC2)C1 (single isomer, unassigned) : DC50 was 1.25 to 10 nM

Short answer for COc1cc(-c2cn(C)c(=O)c(C)c2C)cc(OC)c1CN1CCC(Cc2cccc3c2CCN(C(=O)/C(C#N)=C/C(C)(C)CF)[C@H]3C)CC1 (single isomer, unassigned) : DC50 was 1.25 to 10 nM

Short answer for COc1cc(-c2cn(C)c(=O)c(C)c2C)cc(OC)c1CN1CCN(Cc2ccc3c(c2)[C@@H](C)N(C(=O)/C(C#N)=C/C(C)(C)CF)CC3)CC12CC2 (single isomer, unassigned) : DC50 was 25 to 1000 nM

Short answer for CC[C@@H]1CN(Cc2c(OC)cc(-c3cn(C)c(=O)c(C)c3C)cc2OC)CCN1Cc1cccc2c1CCN(C(=O)/C(C#N)=C/C(C)(C)C)C2C (mixture of isomers) : DC50 was 10 to 25 nM
